Where do these numbers come from? They come from patent US20150045551A1.

target: Human V1b receptor (Homo sapiens); assay: Binding test for V1b receptor ([3H]AVP displacement, crude membrane preparation); design: expressed in transfected cells; host or cells: 293FT cells (transient expression); settings: [3H]AVP 0.4 to 1 nmol/L; membranes of 293FT cells transiently expressing human V1b receptor; room temperature, 60 minutes
Sequence (P47901 whole entry): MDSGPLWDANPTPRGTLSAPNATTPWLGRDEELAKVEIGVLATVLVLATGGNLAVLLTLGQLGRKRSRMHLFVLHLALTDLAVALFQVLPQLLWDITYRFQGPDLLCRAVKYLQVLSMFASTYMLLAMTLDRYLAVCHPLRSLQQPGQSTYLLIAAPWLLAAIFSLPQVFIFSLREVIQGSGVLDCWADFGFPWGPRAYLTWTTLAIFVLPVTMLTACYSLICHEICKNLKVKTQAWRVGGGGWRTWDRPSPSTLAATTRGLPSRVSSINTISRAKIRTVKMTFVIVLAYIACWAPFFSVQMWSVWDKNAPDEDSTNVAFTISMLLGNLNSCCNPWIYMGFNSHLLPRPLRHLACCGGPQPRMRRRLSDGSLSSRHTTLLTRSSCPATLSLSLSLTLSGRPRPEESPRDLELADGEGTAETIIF
Counter-ions that a name gives are not always drawn.
Property measured: IC50 (µM)

>>> value("CC(C)NC(=O)Cn1c(-c2ccc(F)c(Cl)c2)nc2cc(OCCCN3CCOCC3)ccc21")
0.0125
>>> value("CC(C)NC(=O)Cn1c(=O)c2cc(OCCCN3CCCCC3)ccc2n1-c1cccc(Cl)c1")
0.375
>>> value("COc1cc(-c2nc3ccc(-c4cc(Cl)cc(CN(C)C)c4)cc3n2CC(=O)NC(C)C)ccc1F")
0.141
>>> value("CC(C)NC(=O)Cn1c(-c2cccc(Cl)c2)cc2nc(OCCCN3CCCCC3)ccc21")
0.0471
>>> value("COc1cc(-c2nc3cc(OCCCN4CC5(COC5)C4)ccc3n2CC(=O)NC(C)C)ccc1F")
0.0048
>>> value("COc1cc(-c2nc3cc(N4CCC(N5CCCC5)CC4)ccc3n2CC(=O)NC(C)(C)C)ccc1F")
0.0011
>>> value("CC(C)NC(=O)Cn1c(-c2cccc(Cl)c2)nc2cc(OCCCN3CCCCC3)ccc21")
0.0144
>>> value("CC(C)NC(=O)Cn1c(-c2ccc(F)c(Cl)c2)nc2cc(OCCCN3CCCCC3)ccc21 [Example A-12, hydrochloride]")
0.0076
